Here's a batch of compounds along with measured IC50 for CYP2C9 (Homo sapiens, UniProt P11712).

Compound | IC50 (µM)
COc1ccc2c(=O)c(O)c(-c3cc(OC)c(OC)cc3OC)oc2c1 [3H7-TMF, 3-hydroxy-2′,4′,5′,7-tetramethoxyflavone] | 18.3
COc1ccc2oc(-c3cc(OC)c(OC)cc3OC)c(O)c(=O)c2c1 [3H6-TMF, 3-hydroxy-2′,4′,5′,6-tetramethoxyflavone] | 8.03

---

Papp at 4 h, 300 μg/mL for assorted molecules
# Assay Details: Transport of TMFs across Caco-2 cell monolayer, apical to basolateral
# Assay type: in vitro ADME, human
# Conditions Used: human, Caco-2, calculated over four hours, read-out: apparent permeability coefficient (Papp)
# Protocol: Caco-2 cells were cultured in Dulbecco’s modified Eagle’s medium (DMEM; GIBCO, Carlsbad, CA, USA) supplemented with 10% fetal bovine serum (GIBCO), 1% nonessential amino acid solution, and antibiotics (100 U/mL penicillin and 100 µg/mL streptomycin from GIBCO) with a minor modification according to Lu. […] The integrity of the cell layer was assessed using Millicell ERS equipment by measuring transepithelial electrical resistance (TEER) values (Millipore Co., Bedford, MA, USA). […]
Readout: Papp at 4 h, 300 μg/mL (×10⁻⁶ cm/s)

Molecule | Reading
COc1cc(OC)c2c(=O)cc(-c3ccc(OC)c(OC)c3)oc2c1 | 14.3
COc1ccc2oc(-c3cc(OC)c(OC)cc3OC)c(O)c(=O)c2c1 [3H6-TMF, 3-hydroxy-2′,4′,5′,6-tetramethoxyflavone] | 17.4
COc1ccc2c(=O)c(O)c(-c3cc(OC)c(OC)cc3OC)oc2c1 [3H7-TMF, 3-hydroxy-2′,4′,5′,7-tetramethoxyflavone] | 19.5
COc1ccc(-c2cc(=O)c3ccc(OC)c(OC)c3o2)cc1OC | 8.83
